Test system: UACC-62 melanoma
assayProtocol: NCI tumour cell line growth inhibition, 48 h
propertyName: GI50

Solved entries:
INSERT INTO measurements (compound, result) VALUES
  ('COc1ccc(C(=O)/C=C/c2cccnc2)cc1S(N)(=O)=O', '12.8 µM'),
  ('CN(C)c1nc(NCCNS(=O)(=O)c2ccc(C(=O)/C=C/c3ccccc3)cc2)nc(Nc2ccc(F)cc2)n1', '6.68 µM'),
  ('COc1cc(-c2nc3ccc(C)cc3[nH]2)ccc1OCc1nnc(-c2ccc(Br)cc2)o1', '20.1 µM');

--- query ---
Query: Determine from records and report GI50 for O=C(c1ccc(Cl)cc1)C1[C@H](c2ccccc2Br)[C@@H](c2ccccc2)NC12C(=O)Nc1ccc(Cl)cc12 (some centres undefined)
Result: 8.63 µM

---

Test system: MDA-MB-468 breast
assayProtocol: NCI tumour cell line growth inhibition, 48 h; in the data active = GI50 below about 0.43 µM; inactive = the rest
Hi there, use one of these labels in your reply, thanks! True for active, False for inactive

Some solved cases for reference:
INSERT INTO measurements (structureassmiles, assignedlabel) VALUES
  ('O=c1[nH]c(Sc2sc3ccc(Cl)cc3c2CBr)nc(=S)[nH]1', 'False'),
  ('CN1CCN(c2ccc3nc(-c4[nH]ncc4Nc4ncnc5c4OCCCN5)[nH]c3c2)CC1', 'True'),
  ('COc1cnc2c(c1)C(=O)c1c-2n(CCCNCCN2CCOCC2)c(=O)c2cc([N+](=O)[O-])ccc12', 'True');

Next:
Query: Kindly provide the recorded test outcome for the following molecule: `CN(C)c1nc(NCCNS(=O)(=O)c2ccc(C(=O)/C=C/c3ccccc3)cc2)nc(Nc2ccc(F)cc2)n1`
Result: False
